# target.or.test.system: UniProt O43614
# Sequence (O43614 whole entry): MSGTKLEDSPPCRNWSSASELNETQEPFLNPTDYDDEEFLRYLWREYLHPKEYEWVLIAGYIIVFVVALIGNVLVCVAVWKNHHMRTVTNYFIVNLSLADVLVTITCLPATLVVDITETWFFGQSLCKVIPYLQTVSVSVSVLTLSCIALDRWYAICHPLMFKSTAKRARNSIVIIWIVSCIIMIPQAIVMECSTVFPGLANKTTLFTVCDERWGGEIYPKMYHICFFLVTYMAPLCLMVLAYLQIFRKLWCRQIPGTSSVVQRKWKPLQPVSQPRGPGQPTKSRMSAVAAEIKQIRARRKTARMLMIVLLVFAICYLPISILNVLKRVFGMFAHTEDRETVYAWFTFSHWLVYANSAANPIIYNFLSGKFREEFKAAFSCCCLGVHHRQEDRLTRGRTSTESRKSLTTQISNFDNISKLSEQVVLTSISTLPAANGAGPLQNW
# assay.procedure: Intracellular calcium measurements (FLIPR), orexin receptor antagonistic activity
# setup.conditions: CHO cells expressing human orexin-2 receptor; 10 nM orexin-A as agonist; fluo-3 AM calcium signal; read-out: OX2 IC50
The compounds listed here are annotated with their IC50.
Express the result in nM but write the number alone.

COc1ccccc1C(=O)N1CC[C@H]1CNC(=O)c1cccc2occc12 | 122

q: If you can, please state the reported IC50 value of Cc1cccc(-c2sc(C)nc2C(=O)N2CCC2CNC(=O)c2nc3scc(C)n3c2C)c1 (racemic) .
a: 39

q: If you can, please state the reported IC50 value of Cc1cccc(-c2sc(C)nc2C(=O)N2CCC2CNC(=O)c2cccc3c2OCCN3C)c1 (racemic) .
a: 13

q: If you can, please state the reported IC50 value of Cc1nc(C(=O)N2CCC2CNC(=O)c2c(C)nc3sccn23)c(-c2cccc(F)c2)s1 (stereo not shown) .
a: 66

// data source = patent US7994336B2
